- assayProtocol: Prodrug conversion assessed as RNase (unknown origin)-mediated drug release by measuring half life in simulated intestinal fluid at 1 mM by UV/Vis detector based HPLC analysis
- Type: ADME
- conditionParameters: human, simulated gi fluid, 1000 µM
attributeMeasured: t1/2 (h)
Answer with a number only, understood to be in h.

Query :: Annotate the compound COc1cc([C@@H]2Oc3cc([C@H]4Oc5cc(O)cc(O)c5C(=O)[C@@H]4O)ccc3O[C@H]2COP(=O)(O)O[C@H]2[C@@H](O)[C@H](n3ccc(=O)[nH]c3=O)O[C@@H]2CO)ccc1O with its measured t1/2.
Result :: 11

Query :: For COc1cc(C2Oc3cc([C@H]4Oc5cc(O)cc(O)c5C(=O)[C@@H]4O)ccc3OC2COP(=O)(O)O[C@H]2[C@@H](O)[C@H](n3ccc(=O)[nH]c3=O)O[C@@H]2CO)ccc1O (stereo partly specified) , write its t1/2.
Result :: 20

Query :: Indicate the recorded t1/2 value for this compound: COc1cc([C@H]2Oc3cc([C@H]4Oc5cc(O)cc(O)c5C(=O)[C@@H]4O)ccc3O[C@@H]2COP(=O)(O)O[C@H]2[C@@H](O)[C@H](n3ccc(=O)[nH]c3=O)O[C@@H]2CO)ccc1O
Result :: 13
